Experiment: NCI Yeast Anticancer Drug Screen. Data for the mlh1 rad18 strain (AID 175)
Conditions: S. cerevisiae mlh1 rad18 strain growth inhibition; at 5.0 µM (retest, dose inferred, filed as 0.5); active compounds read high
This is part of a sample that, as a whole, favours compounds with a hit. Of some 79,000 tested, about 15% had one in any assay.
Measured growth inhibition of individual entries
Only the number, expressed in %, is required.

COc1ccc(CSC(=S)Nc2cc(C)c(C)cc2[N+](=O)[O-])cc1 = 60

For the molecule shown here, "COC(=O)Cn1/c(=N\N=C(/C)c2ccc(C)cc2)sc2ccccc21" , give the reported growth inhibition.
-20

Field entry: CCCCC(CC)CNc1ncnc2c1cnn2C (stereo not drawn)
14

Field entry: "CC(=O)OCc1cc2ccccc2nc1C(Br)(Br)Br"
39

Field entry: "COc1ccc2c(c1)[n+]([O-])c(-c1ccc(Cl)cc1)c(N)[n+]2[O-]"
79

Field entry: Cc1ccc(S(=O)(=O)CC2COC(CS(=O)(=O)c3ccc(C)cc3)CO2)cc1 (stereo not drawn)
-2

Field entry: "COc1cc(Cc2n[nH]c(=S)n2-c2ccccc2)c(S(N)(=O)=O)cc1OC"
0

Field entry: "Cc1n(CC(C)C)c2c([n+]1CC(=O)c1ccc([N+](=O)[O-])cc1)C(=O)c1ccccc1C2=O"
47

Field entry: "O=C(Cc1ccccc1)NNc1nc(NNC(=O)c2ccncc2)nc(Nc2ccccc2)n1"
13

Field entry: "CN(C)/N=N/c1nc(Cc2ccccc2)[nH]c1C(N)=O"
99

Field entry: "c1ccc(CN2CCC3(CC2)SSC2(CCN(Cc4ccccc4)CC2)SS3)cc1"
7

Field entry: "CC[Si](CC)(CC)c1ccc(CCNCCS)s1"
49

Field entry: "Oc1c(C(O)(c2ccccc2)c2ccc3ccccc3c2O)ccc2ccccc12"
9

Field entry: CC1CCC(C)(C)c2cc([N+](=O)[O-])cc([N+](=O)[O-])c21 (stereo not drawn)
-1

###

Test: NCI Yeast Anticancer Drug Screen. Data for the mlh1 rad18 strain (AID 175)
Settings: S. cerevisiae mlh1 rad18 strain growth inhibition; at 50.0 µM; active compounds read high
About 79,000 compounds went through this panel and 15% of them were active in at least one assay; those are over-represented in the sample as a whole.
Measured growth inhibition of individual entries
Only the number, expressed in %, is required.

Cc1ccc(C(=O)OCCN2CCN(c3ccccc3)CC2)c([N+](=O)[O-])c1OCc1ccccc1 = 90.6
O=C(Nc1ccc(C2=NCCN2)cc1)c1cc(C(=O)Nc2ccc(C3=NCCN3)cc2)cc(C(=O)Nc2ccc(C3=NCCN3)cc2)c1 = 99
CCN(CC)CCSCCCNc1cc(OC)cc2cccnc12 = 65.3

For the compound shown here, "C[N+](C)(C)CC(=O)N/N=C/c1oc(-c2c(O)ccc3ccccc23)c(-c2c(O)ccc3ccccc23)c1[N+](=O)[O-]" , give the reported growth inhibition.
84.2

Field entry: "COc1ccc2c(c1)CCC/C2=N\NS(=O)(=O)c1c(C)cc(C)cc1C"
5.7

###

Assay: NCI Yeast Anticancer Drug Screen. Data for the sgs1 mgt1 strain (AID 161);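 note: 0% = growth of cultures given vehicle only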
Settings: S. cerevisiae sgs1 mgt1 strain, at 50.0 µM (retest, dose inferred, filed as 5.0)
This is part of a sample that, as a whole, favours compounds with a hit. Of some 79,000 tested, about 15% had one in any assay. The source made the active and inactive calls. No stated cut-off is given here; in the data, active means growth inhibition above about 70%; inactive means the rest.
Give one outcome, nothing more. List: active, inactive

Known results for compounds:
CCN(CC)CC(O)CNc1ccc(NCC(O)CCl)c2c1C(=O)c1ccccc1C2=O (stereo not given) = active
CC1=CC(=O)C=C(Br)C1=O = active
O=C(O)c1ccc(Br)cc1C(=O)c1ccccc1 = inactive
O=C(Nc1ccccc1)OCCN=c1c2ccccc2ccc2ccccc12 = inactive
CC(O)c1c2c(cc3c1CC1(C3)Cc3cc4c(c(C(C)O)c3C1)CCC4)CCC2 (stereo not given) = active
COc1ccc2c(c1)CCC(N1CCCC(O)C1)C2 (stereo not given) = active
C=CC[P+](CC[P+](CC=C)(c1ccccc1)c1ccccc1)(c1ccccc1)c1ccccc1 = inactive
CC(=O)Nc1ccc(N=C2c3ccccc3-c3ccc(NC(C)=O)cc32)cc1 = inactive

# lookup: test call for "COc1ccc(/C=C(/C#N)c2ccccc2)cc1"
inactive

Field entry: "N#Cc1ccccc1[N+](=O)[O-]"
inactive

Field entry: Cc1ccc(S(=O)(=O)NNC2Oc3cc4c(cc3C(c3ccccc3O)C2C)OCO4)cc1 (stereo not given)
active

Field entry: COC(=O)C(=O)C(C(=O)Nc1cccc(C)c1C)C1Sc2ccccc2NC1=O (stereo not given)
active

Field entry: "c1ccc([B-](c2ccccc2)(c2ccccc2)c2ccccc2)cc1"
inactive

Field entry: C=CCOCC(C)OC(=O)C(C)C (stereo not given)
inactive

Field entry: "O=C(O)/C=C/C(=O)c1ccccc1"
inactive

Field entry: "CC(C)C1=C(O)c2ccccc2C(=O)C1=O"
active

Field entry: CC(C)(C)C1=NN=C2c3ccccc3C(=O)C21 (stereo not given)
inactive

Field entry: "CCCCCCCCCCCCNC(=O)C[n+]1cccc(C(=O)N(C)C)c1"
inactive

Field entry: "Clc1ccc(-c2nnc(-c3ccccn3)o2)c(Cl)c1"
active

Field entry: O=C1OC(=O)C2C1C1(c3ccccc3)OC2(c2ccccc2)c2c(Br)c(Br)c(Br)c(Br)c21 (stereo not given)
active

Field entry: "C#CCn1cnc2c(N)ncnc21"
inactive

Field entry: "Clc1ccccc1/C=C/c1ccccn1"
inactive
